The measurements presented in this section are drawn from PubChem BioAssay (NCI).

System: LOX IMVI melanoma
Experiment: NCI tumour cell line growth inhibition, 48 h; in the data active = GI50 below about 0.43 µM; inactive = the rest
Permitted responses: active, inactive

Consider the worked cases shown below.
Dear colleague, could you share the recorded outcome for CCN(Cc1cccc(OC)c1)c1ccc(CO)c(Cl)c1 when you have a moment?
inactive

// same read-out, input: CCOP(=O)(OCC)C(NC(c1ccccc1)c1ccccc1)c1ccccc1 (centres undefined)
inactive

// same read-out, input: [Cl][Bi]([O]c1ccccn1)[O]c1ccccn1
inactive

Please find the next compound below.
Dear colleague, could you share the recorded outcome for COc1cc(Nc2nc3cc(N)cc(N)c3nc2-c2ccccc2)cc(OC)c1 when you have a moment?
inactive

====

# reported TGI; entries follow
Test system: NCI/ADR-RES ovarian
Test: NCI tumour cell line growth inhibition, 48 h
*1 amine or outer side, *2 acyl side, *3 side chain or, on linkers, in order; H or OH if unused. Where a SMILES comes first, the peptide text is derived from it. Bridges are numbered along the chain shown (N, C = ends). Roman numbers before positions name the chains, in order. [ ]: non-standard residue; d: D form. Actinocin(9to1) = Cc1c2oc3c(C)ccc(C(=O)[*:1])c3nc-2c(C(=O)[*:2])c(N)c1=O; NMeV = CN[CH](C(=O)O)C(C)C; Sar = CNCC(=O)O

Would you please look over these solved cases?
Need TGI, item C=C1C(=O)O[C@H]2[C@H]1CC/C(COC(=O)NCc1cc3ccccc3[nH]1)=C\CC[C@@]1(C)O[C@@H]21
8.06 µM

// same read-out, input: CCC1(O)CC(O)c2c(O)c3c(c(O)c2C1C(=O)OC)C(=O)c1cccc(O)c1C3=O (configuration not stated)
3.28 µM

// same read-out, input: O=P1(N(CCCl)CCCl)NCCCO1 (configuration not stated)
> 250 µM

// same read-out, input: COc1ccc(C[C@H]2COC(=O)[C@@H]2Cc2ccccc2)cc1OC
> 100 µM

// same read-out, input: CC(=O)OC[C@H]1O[C@@H](n2ccc(=O)[nH]c2=O)[C@H](OC(C)=O)[C@@H]1OC(C)=O
> 100 µM

// same read-out, input: Nc1ccc2c(SCCSc3c4ccccc4nc4cc(N)ccc34)c3ccccc3nc2c1
> 100 µM

// same read-out, input: O=C(O)c1ccc2c(c1)Cc1cc([N+](=O)[O-])ccc1-2
> 100 µM

// same read-out, input: C#Cc1cccc(Nc2ncnc3cc(OCCOC)c(OCCOC)cc23)c1
> 100 µM

---
Need TGI, item CC12CCC3C(CC=C4CC(O)CCC43C)C1C/C(=C\N1CCCC1)C2=O (configuration not stated)
> 100 µM

// same read-out, input: Cc1c2oc3c(C)ccc(C(=O)NC4C(=O)NC(Cc5ccc(O)cc5)C(=O)N5CCCC5C(=O)N(C)CC(=O)N(C)C(C(C)C)C(=O)OC4C)c3nc-2c(C(=O)NC2C(=O)NC(Cc3ccc(O)cc3)C(=O)N3CCCC3C(=O)N(C)CC(=O)N(C)C(C(C)C)C(=O)OC2C)c(N)c1=O (configuration not stated) (I: TYP[Sar][NMeV] / II: TYP[Sar][NMeV]; ester I:1-I:C, II:1-II:C; linker I:N-II:N via Actinocin(9to1); configuration not given here)
> 100 µM

// same read-out, input: C=C(C)[C@@H]1CC[C@]2(C(=O)OC3OC(COC4OC(CO)C(OC5OC(C)C(O)C(O)C5O)C(O)C4O)C(O)C(O)C3O)CC[C@]3(C)[C@H](CC[C@@H]4[C@@]5(C)CC[C@H](O)[C@@](C)(CO)[C@@H]5CC[C@]43C)[C@@H]12 (some centres not stated)
> 10 µM

// same read-out, input: Oc1ccc(/C=N\Nc2ccccn2)c(O)c1
> 100 µM

// same read-out, input: COc1ccc(OC)c(-c2cn3c(n2)sc2ccccc23)c1
> 100 µM

// same read-out, input: N#C[C@H]1C(=O)C(c2nc3ccccc3[nH]2)S[C@H]1c1ccccc1 (some centres not stated)
> 100 µM

// same read-out, input: Cn1c(=O)[nH]n(-c2ccc3ccccc3c2)c1=O
> 100 µM

// same read-out, input: N#Cc1c(C(=O)c2ccccc2)cnn1-c1ccccc1
> 25 µM

// same read-out, input: OCc1cn(Cc2cccc(Cl)c2)c2ccccc12
62 µM

====

System: HS 578T breast
Test: NCI tumour cell line growth inhibition, 48 h
Property Measured: GI50

Would you please look over these solved cases?
Need GI50, item Oc1ccc(/C=N\Nc2ccccn2)c(O)c1
4.99 µM

// same read-out, input: COc1ccc(-c2cc(-c3ccc(OC)c(OC)c3)nc(SCCCC(=O)NO)n2)cc1
1.91 µM

// same read-out, input: CC12CCC3C(CC=C4CC(O)CCC43C)C1C/C(=C\N1CCCC1)C2=O (stereo unspecified)
60.8 µM

// same read-out, input: COc1ccc(-n2c(SCc3cc(OC)c(OC)c(OC)c3)nc3ccc(C)cc3c2=O)c(OC)c1
3.31 µM

---
Need GI50, item C(=N\Nc1ccccn1)/c1ccccn1
1.41 µM

// same read-out, input: CCN(Cc1cccc(OC)c1)c1ccc(CO)c(Cl)c1
18.3 µM

====

Tested on: COLO 205 colon
Assay: NCI tumour cell line growth inhibition, 48 h
# reported TGI; entries follow

Would you please look over these solved cases?
Need TGI, item CCOc1ccccc1N=NC1C(=O)N(C(=O)CC(=O)Nc2ccccc2OC)N=C1C (stereo unspecified)
> 100 µM

// same read-out, input: Cc1c(C#N)cccc1-c1cc(-c2cn(Cc3cccc(C(C)(C)O)n3)nn2)nc(N)n1
> 100 µM

// same read-out, input: O=C1/C(=C/C=C/c2ccccc2)CCC1CNc1ccc(Br)cc1 (stereo unspecified)
48.6 µM

---
Need TGI, item Cn1c(=O)[nH]n(-c2ccc3ccccc3c2)c1=O
> 100 µM

// same read-out, input: CCC1(O)CC(O)c2c(O)c3c(c(O)c2C1C(=O)OC)C(=O)c1cccc(O)c1C3=O (stereo unspecified)
7.65 µM

// same read-out, input: CC(=O)O[C@H]1C(=O)[C@@]2(C)C(C(OC(=O)c3ccccc3)[C@]3(O)CC(OC(=O)[C@H](OC(=O)CCC(=O)O)C(NC(=O)c4ccccc4)c4ccccc4)C(C)=C1C3(C)C)C1(OC(C)=O)COC1C[C@@H]2OC(=O)CCC(=O)O (stereo partly specified)
18.6 µM

// same read-out, input: COc1ccc(C=C2C(=O)OC(C)(C)OC2=O)cc1OC
> 100 µM

// same read-out, input: C=C1CC(Cn2cc(Br)c(=O)[nH]c2=O)(c2ccc(Br)cc2)OC1=O (stereo unspecified)
3.18 µM

// same read-out, input: Oc1ccc(/C=N\Nc2ccccn2)c(O)c1
> 100 µM

// same read-out, input: c1ccc(Cc2nc3ccc(Nc4ncnc5ccccc45)cc3[nH]2)cc1
> 25 µM

// same read-out, input: COC(=O)C1CC(C(=O)OC)c2nc3cc(C)ccc3nc21 (stereo unspecified)
> 100 µM

====

Tested on: SN12C renal
Experiment: NCI tumour cell line growth inhibition, 48 h
Property Measured: GI50

Need GI50, item N[C@@H](Cc1c[nH]c2ccccc12)C(=O)NC1CCN(C(=O)c2c[nH]c3ccccc23)CC1
> 100 µM

// same read-out, input: CC[C@]1(O)CC2CN(CCc3c([nH]c4ccccc34)[C@@](C(=O)OC)(c3cc4c(cc3OC)N(C)[C@H]3[C@@](O)(C(=O)OC)[C@H](OC(C)=O)[C@]5(CC)C=CCN6CC[C@]43[C@@H]65)C2)C1 (stereo not given in full)
< 0.005 µM

// same read-out, input: CCOP(=O)(OCC)C(NC(c1ccccc1)c1ccccc1)c1ccccc1 (stereo not given)
16.8 µM

---
Need GI50, item C=C1C(=O)O[C@H]2[C@H]1CC/C(COC(=O)/C=C/C(=O)OC/C1=C/CC[C@@]3(C)O[C@H]3[C@H]3OC(=O)C(=C)[C@@H]3CC1)=C\CC[C@@]1(C)O[C@@H]21
1.49 µM

// same read-out, input: COc1ccc(/C=C/C(=O)c2cc3c(N)c(C(=O)Nc4ccccc4Cl)sc3nc2C)cc1
3.78 µM

// same read-out, input: Nc1ccccc1C#C/C=C\C#Cc1ccccc1C(F)(F)F
0.399 µM

// same read-out, input: CC1=C([Se]CC(OC(=O)CC[Se]c2ccccc2)C(=O)NCCCCCC(=O)OCc2ccccc2)C(=O)c2ccccc2C1=O (stereo not given)
3.25 µM

// same read-out, input: C[C@]12CCC3[C@@H](C[C@@H]4SC(Nc5ccccc5)=N[C@@]45CC(=O)CC[C@]35C)[C@@H]1CCC2=O (stereo not given in full)
3.81 µM

// same read-out, input: O=S(=O)([O-])c1cccc2cccc(N=Cc3ccccc3[O-])c12.O=S(=O)([O-])c1cccc2cccc(N=Cc3ccccc3[O-])c12.[O]=[U]=[O]
> 100 µM

// same read-out, input: CC(CN(CP(=O)([O-])[O-])CP(=O)([O-])[O-])N(CP(=O)([O-])[O-])CP(=O)([O-])[O-].N.N.[Pt+2] (stereo not given)
> 100 µM
